Here, each record is paired with measured Ratio WT/mutant data.
# EXPERIMENTAL_TARGET: EGFR L858R/T790M (H1975 cells) (Homo sapiens (Human), UniProt P00533, L858R/T790M)
# RUN_DESCRIPTION: Phospho-EGFR signaling immunoblot (1 hr), H1975 cells
# Assay type: cell-based
# EXPERIMENTAL_PARAMETERS: WT EGFR (A431) vs H1975
OBSERVABLE: Ratio WT/mutant

compound="C=CC(=O)Nc1cccc(Nc2nc(Nc3ccc(N4CCN(S(C)(=O)=O)CC4)cc3OC)ncc2C(F)(F)F)c1 [Compound I-17]" result_value=>30
compound="C=CC(=O)Nc1cccc(Nc2nc(Nc3ccc(N4CCN(C(C)=O)CC4)cc3OC)ncc2Br)c1 [Compound I-40]" result_value=>1
compound="C=CC(=O)Nc1cccc(Nc2nc(Nc3ccc(N4CCS(=O)(=O)CC4)cc3OC)ncc2C(F)(F)F)c1 [Compound I-49]" result_value=>20
compound="C=CC(=O)Nc1cccc(Nc2nc(Nc3ccc(N4CCOCC4)cc3OC(F)F)ncc2C(F)(F)F)c1 [Compound I-14]" result_value=>15
compound="C=CC(=O)Nc1cccc(Oc2nc(Nc3ccc(N4CCOCC4)cc3OC)ncc2C(F)(F)F)c1 [Compound I-1]" result_value=>50
compound="C=CC(=O)Nc1cccc(Oc2nc(Nc3ccc(N4CCOCC4)cc3OC)ncc2Cl)c1 [Compound I-5]" result_value=>30
compound="C=CC(=O)Nc1cccc(Oc2nc(Nc3ccc(N4CCN(S(C)(=O)=O)CC4)cc3OC)ncc2C(F)(F)F)c1 [Compound I-22]" result_value=>35
compound="C=CC(=O)Nc1cccc(Oc2nc(Nc3ccc(N4CCN(S(C)(=O)=O)CC4)cc3OC)ncc2Cl)c1 [Compound I-26]" result_value=>40
compound="C=CC(=O)Nc1cccc(Nc2nc(Nc3ccc(N4CCN(S(C)(=O)=O)CC4)cc3OC)ncc2Cl)c1 [Compound I-41]" result_value=>1
compound="C=CC(=O)Nc1cccc(Nc2nc(Nc3ccc(N4CCN(C(C)=O)[C@H](C(=O)OC)C4)cc3OC)ncc2C(F)(F)F)c1 [Compound I-48]" result_value=>50
compound="C=CC(=O)Nc1cccc(Nc2nc(Nc3ccc(N4CCN(C(C)=O)CC4)cc3OC(F)(F)F)ncc2C(F)(F)F)c1 [Compound I-33]" result_value=>50
compound="C=CC(=O)Nc1cccc(Nc2nc(Nc3ccc(N4CCCN(C(C)=O)CC4)cc3OC)ncc2C(F)(F)F)c1 [Compound I-7]" result_value=>5
compound="C=CC(=O)Nc1cccc(Nc2nc(Nc3ccc(N4CCCN(C(=O)OC(C)(C)C)CC4)cc3OC)ncc2C(F)(F)F)c1 [Compound I-44]" result_value=>5
compound="C=CC(=O)Nc1cccc(Oc2nc(Nc3ccc(N4CCN(C(=O)CO)CC4)cc3OC)ncc2Cl)c1 [Compound I-3]" result_value=>5

###

# EXPERIMENTAL_TARGET: EGFR L858R/T790M (H1975 cells) (Homo sapiens (Human), UniProt P00533, L858R/T790M)
# RUN_DESCRIPTION: Phospho-EGFR signaling immunoblot (1 hr), H1975 cells
# Format: cell-based
# EXPERIMENTAL_PARAMETERS: WT EGFR (A431) vs H1975
OBSERVABLE: Ratio WT/mutant

molecule=C=CC(=O)Nc1cccc(Nc2nc(Nc3ccc(N4CCN(C(=O)CO)CC4)cc3OC)ncc2C(F)(F)F)c1 experimental_target="EGFR L858R/T790M (H1975 cells) (Homo sapiens (Human), UniProt P00533, L858R/T790M)" result_value=>20
molecule=C=CC(=O)Nc1cccc(Nc2nc(Nc3ccc(N4CCN(C(=O)C(C)(C)C)CC4)cc3OC)ncc2C(F)(F)F)c1 experimental_target="EGFR L858R/T790M (H1975 cells) (Homo sapiens (Human), UniProt P00533, L858R/T790M)" result_value=>35
molecule=C=CC(=O)Nc1cccc(Nc2nc(Nc3ccc(N4CCN(C(C)=O)CC4)cc3OC)ncc2Cl)c1 experimental_target="EGFR L858R/T790M (H1975 cells) (Homo sapiens (Human), UniProt P00533, L858R/T790M)" result_value=>1
molecule=C=CC(=O)Nc1cccc(Nc2nc(Nc3ccc(N4CCN(C(=O)CO)CC4)cc3OC)ncc2Cl)c1 experimental_target="EGFR L858R/T790M (H1975 cells) (Homo sapiens (Human), UniProt P00533, L858R/T790M)" result_value=>1
molecule=C=CC(=O)Nc1cccc(Oc2nc(Nc3ccc(N4CCN(C(=O)CO)CC4)cc3OC)ncc2C(F)(F)F)c1 experimental_target="EGFR L858R/T790M (H1975 cells) (Homo sapiens (Human), UniProt P00533, L858R/T790M)" result_value=>15
molecule=C=CC(=O)Nc1cccc(Oc2nc(Nc3ccc(N4CCN(C(=O)NC)CC4)cc3OC)ncc2C(F)(F)F)c1 experimental_target="EGFR L858R/T790M (H1975 cells) (Homo sapiens (Human), UniProt P00533, L858R/T790M)" result_value=>5
molecule=C=CC(=O)Nc1cccc(Oc2nc(Nc3ccc(N4CCN(C(=O)OC(C)(C)C)CC4)cc3OC)ncc2Cl)c1 experimental_target="EGFR L858R/T790M (H1975 cells) (Homo sapiens (Human), UniProt P00533, L858R/T790M)" result_value=>10
molecule=C=CC(=O)Nc1cccc(Nc2nc(Nc3ccc(N4CCOCC4)cc3OC)ncc2C(F)(F)F)c1 experimental_target="EGFR L858R/T790M (H1975 cells) (Homo sapiens (Human), UniProt P00533, L858R/T790M)" result_value=>50
